Source of measurements: patent US9315546B2

SYSTEM: Ghrelin/GHRP/GHS Receptor (Rattus norvegicus)
Sequence (O08725 whole entry): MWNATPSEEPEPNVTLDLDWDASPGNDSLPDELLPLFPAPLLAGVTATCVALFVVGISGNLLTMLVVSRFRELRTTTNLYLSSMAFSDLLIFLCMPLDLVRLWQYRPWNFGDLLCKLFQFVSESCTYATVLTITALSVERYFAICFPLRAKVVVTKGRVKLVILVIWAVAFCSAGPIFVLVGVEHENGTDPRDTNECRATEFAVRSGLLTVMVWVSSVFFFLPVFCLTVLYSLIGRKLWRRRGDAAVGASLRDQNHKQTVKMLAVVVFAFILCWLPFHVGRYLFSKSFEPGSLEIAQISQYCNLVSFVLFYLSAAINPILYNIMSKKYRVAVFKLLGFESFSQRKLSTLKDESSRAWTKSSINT
METHOD NOTES: GH release from cell culture of pituitary cells
Type: cell-based
Set-up: After dispersion, the cells were collected by centrifugation, wash with DMEM and placed into culture well; endogenous in cells; host or cells: dispersed primary rat pituitary cells, 4 days in culture
CONDITION CONTEXT: Table 8; peptide 30 μg/ml
Where no end group is shown, it is not given here. [ ]: non-standard residue; d: D form.
MEASURED ATTRIBUTE: Unstimulated Basal GH release
Give the figure together with its unit, number first.

Below, 4 substances whose answers are already recorded.
> print(dat)
                                  substance             measured.attribute     measurement
1  DPal-Trp-DPhe-Phe-Met-NH2 [14-DPal-Trp-DPhe-Phe-Met-NH2]  Unstimulated Basal GH release  567 ± 24 ng/mL
2  DAla-DcyclohexylAla-Ala-Ala-Phe-DPhe-Nle-NH2  Unstimulated Basal GH release  376 ± 28 ng/mL
3  DPal-Phe-DTrp-Phe-Met-NH2 [12-DPal-Phe-DTrp-Phe-Met-NH2]  Unstimulated Basal GH release  425 ± 25 ng/mL
4  DPhe-Ala-Phe-DPal-NH2 [6-DPhe-Ala-Phe-DPal-NH2]  Unstimulated Basal GH release  161 ± 20 ng/mL

Now consider the entry below.
q: So what does the record say about Unstimulated Basal GH release for [dF]W[dF]FM-NH2 [13-DPhe-Trp-DPhe-Phe-Met-NH2] ?
a: 871 ± 89 ng/mL
